Experiment: Acute toxicity, intravenous, mice
Details: mouse, in vivo, mice (ICR, male, 4 weeks old, 5 per group)
For each entry below, report its LD50 value.

Q) Return reported LD50; argument: CCOC(=O)C1=C(C)NC(C)=C(C(=O)OCCOC/C(C)=C/c2ccc(Cc3cccnc3)cc2)C1c1cccc([N+](=O)[O-])c1 (centres unmarked)
A) ≥ 75 mg/kg

Q) // LD50 lookup, key: CCOC(=O)C1=C(C)NC(C)=C(C(=O)OCCN(C)C/C(C)=C/c2ccc(Oc3cccnc3)cc2)C1c1cccc([N+](=O)[O-])c1 (centres unmarked)
A) ≥ 30 mg/kg

Q) So what does the record say about LD50 for COC(=O)C1=C(C)NC(C)=C(C(=O)OCCOC/C(C)=C/c2ccc(Cc3cccnc3)cc2)C1c1cccc([N+](=O)[O-])c1 (centres unmarked) ?
A) ≥ 75 mg/kg

Q) I am curious: what LD50 value has been reported for CCOC(=O)C1=C(C)NC(C)=C(C(=O)OCCCCOC/C(C)=C/c2ccc(Cc3cccnc3)cc2)C1c1cccc([N+](=O)[O-])c1 (centres unmarked) ?
A) ≥ 50 mg/kg

Q) Give the measured LD50 of CCOC(=O)C1=C(C)NC(C)=C(C(=O)OCCOC/C(C)=C/c2ccc(Cc3cccnc3)s2)C1c1cccc([N+](=O)[O-])c1 (centres unmarked) .
A) ≥ 75 mg/kg

Q) Find the recorded LD50 belonging to CC1=C(C(=O)OCCNC/C(C)=C/c2ccc(Cc3cccnc3)cc2)C(c2cccc([N+](=O)[O-])c2)C(C(=O)OC(C)C)=C(C)N1 (centres unmarked) and report it.
A) ≥ 30 mg/kg

Q) Item CCOC(=O)C1=C(C)NC(C)=C(C(=O)OCCOC/C(C)=C/c2ccc(Oc3cccnc3)cc2)C1c1cccc([N+](=O)[O-])c1 (centres unmarked) has what recorded LD50?
A) ≥ 75 mg/kg

Q) Fill in: LD50 of COC(=O)C1=C(C)NC(C)=C(C(=O)OCCN(C)C/C(C)=C/c2ccc(Cc3cccnc3)cc2)C1c1cccc([N+](=O)[O-])c1 (centres unmarked) is ___
A) ≥ 30 mg/kg

Q) Can you look up the measured LD50 of CCOC(=O)C1=C(C)NC(C)=C(C(=O)OCCOC/C=C/c2ccc(Cc3cccnc3)cc2)C1c1cccc([N+](=O)[O-])c1 (centres unmarked) for me?
A) ≥ 75 mg/kg

Q) Fill in the blank: the reported LD50 of CC1=C(C(=O)OCCN(C)C/C=C/c2ccc(Cn3ccnc3)cc2)C(c2cccc([N+](=O)[O-])c2)C(C(=O)OC(C)C)=C(C)N1 (centres unmarked) is ____.
A) ≥ 30 mg/kg

Q) For CC1=C(C(=O)OCCN(C)C/C=C/c2ccc(Cc3cccnc3)cc2)C(c2cccc([N+](=O)[O-])c2)C(C(=O)OC(C)C)=C(C)N1 (centres unmarked) , what is its reported LD50?
A) ≥ 30 mg/kg

###

System: vertebral artery blood flow of a dog
Test: Vertebral artery blood flow increasing activity
Format: in vivo, dog (mongrel)
Conditions: i.v., amount with same activity as 1 mg/kg (i.v.) papaverine hydrochloride, ratio to papaverine hydrochloride
Procedure: The compounds of this invention to be tested were used in the form of a hydrochloride. The vertebral artery blood flow of a dog (mongrel, 12-22 kg, 2-3 heads per group) anesthetized with pentobarbital sodium (30 mg/kg, i.v.) was measured by means of an electromagnetic flow meter (MFV-2100 manufactured by Nihon Kohden Kogyo). […]
Where a name gives a salt, the structure may show the parent alone.
reported metric: Effect ratio

Q) Please look up its Effect ratio: COC(=O)C1=C(C)NC(C)=C(C(=O)OCCN(C)Cc2ccccc2)C1c1cccc([N+](=O)[O-])c1 (centres unmarked) [Nicardipine, hydrochloride, reference compound]
A) 220

Q) Fill in: Effect ratio of CCOC(=O)C1=C(C)NC(C)=C(C(=O)OCCOCCCc2ccc(Oc3cccnc3)cc2)C1c1cccc([N+](=O)[O-])c1 (centres unmarked) is ___
A) 535

Q) Any idea what Effect ratio was measured for CCOC(=O)C1=C(C)NC(C)=C(C(=O)OCCCCOC/C(C)=C/c2ccc(Cc3cccnc3)cc2)C1c1cccc([N+](=O)[O-])c1 (centres unmarked) ?
A) 397

Q) # query: Effect ratio of entry CCOC(=O)C1=C(C)NC(C)=C(C(=O)OCCOC/C(C)=C/c2ccc(Cc3cccnc3)cc2)C1c1cccc([N+](=O)[O-])c1 (centres unmarked)
A) 345

Q) Quick check: Effect ratio of CC1=C(C(=O)OCCN(C)C/C(C)=C/c2ccc(Cc3cccnc3)cc2)C(c2cccc([N+](=O)[O-])c2)C(C(=O)OC(C)C)=C(C)N1 (centres unmarked) ?
A) 238

Q) Which Effect ratio reading was recorded for the molecule CCOC(=O)C1=C(C)NC(C)=C(C(=O)OCCOCCCc2ccc(Cc3cccnc3)cc2)C1c1cccc([N+](=O)[O-])c1 (centres unmarked) ?
A) 233

Q) Entry CCOC(=O)C1=C(C)NC(C)=C(C(=O)OCCOC/C(C)=C/c2ccc(Oc3cccnc3)cc2)C1c1cccc([N+](=O)[O-])c1 (centres unmarked) has what Effect ratio?
A) 550

Q) Query (molecule): CCOC(=O)C1=C(C)NC(C)=C(C(=O)OCCOCc2ccc(Cc3cccnc3)cc2)C1c1cccc([N+](=O)[O-])c1 (centres unmarked) ; field requested: Effect ratio
A) 238
